biological target: FGFR1 (Homo sapiens (Human), UniProt P11362); assay: FGFR Enzymatic Assay (FRET peptide phosphorylation), FGFR1; details: FGFR1 IC50 (nM), pre-incubated for 4 hours
Sequence (P11362 22-822): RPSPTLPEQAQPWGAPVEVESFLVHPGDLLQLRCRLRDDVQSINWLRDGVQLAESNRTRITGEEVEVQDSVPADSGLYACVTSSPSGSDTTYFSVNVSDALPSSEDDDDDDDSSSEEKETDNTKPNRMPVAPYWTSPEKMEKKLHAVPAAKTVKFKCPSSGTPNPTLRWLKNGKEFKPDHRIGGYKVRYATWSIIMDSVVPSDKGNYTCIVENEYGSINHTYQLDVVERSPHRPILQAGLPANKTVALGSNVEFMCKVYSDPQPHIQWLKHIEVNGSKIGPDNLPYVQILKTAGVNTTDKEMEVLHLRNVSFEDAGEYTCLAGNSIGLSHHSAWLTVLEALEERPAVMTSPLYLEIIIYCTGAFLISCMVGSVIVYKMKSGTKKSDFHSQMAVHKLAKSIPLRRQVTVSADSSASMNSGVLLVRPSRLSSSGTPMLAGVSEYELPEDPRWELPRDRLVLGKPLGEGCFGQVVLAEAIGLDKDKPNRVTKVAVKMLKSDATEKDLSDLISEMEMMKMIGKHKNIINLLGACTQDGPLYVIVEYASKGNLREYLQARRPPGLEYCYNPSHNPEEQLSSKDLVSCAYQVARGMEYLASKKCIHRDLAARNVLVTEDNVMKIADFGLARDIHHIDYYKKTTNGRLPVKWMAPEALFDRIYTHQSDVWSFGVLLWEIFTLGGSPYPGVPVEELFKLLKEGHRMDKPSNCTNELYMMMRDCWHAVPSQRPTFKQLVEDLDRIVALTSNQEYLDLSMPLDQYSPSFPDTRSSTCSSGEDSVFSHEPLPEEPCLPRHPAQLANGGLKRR
Measured IC50, listed per entry for reference.

| Smi | IC50 |
| --- | --- |
| COc1cc(OC)c(F)c(N2Cc3cnc(-c4cn(C)nc4C)cc3N(C3CC3)C2=O)c1F | 30 to 200 nM |
| CNC(=O)c1ccc(CN2C(=O)N(c3c(F)c(OC)cc(OC)c3F)Cc3cnc(-c4cn(C)nc4C)cc32)cc1 | 30 to 200 nM |
| CNS(=O)(=O)c1cccc(N2C(=O)N(c3c(F)c(OC)cc(OC)c3F)Cc3cnc(-c4cn(C)nc4C)cc32)c1 | 10 to 30 nM |
| COc1cc(OC)c(F)c(N2Cc3cnc(-c4cn(CCN5CCOCC5)nc4C)cc3C3(CC3)C2=O)c1F | 30 to 200 nM |

###

Measured IC50, listed per entry for reference.
Biological target: FGFR2 (Homo sapiens (Human), UniProt P21802)
Sequence (P21802 22-821): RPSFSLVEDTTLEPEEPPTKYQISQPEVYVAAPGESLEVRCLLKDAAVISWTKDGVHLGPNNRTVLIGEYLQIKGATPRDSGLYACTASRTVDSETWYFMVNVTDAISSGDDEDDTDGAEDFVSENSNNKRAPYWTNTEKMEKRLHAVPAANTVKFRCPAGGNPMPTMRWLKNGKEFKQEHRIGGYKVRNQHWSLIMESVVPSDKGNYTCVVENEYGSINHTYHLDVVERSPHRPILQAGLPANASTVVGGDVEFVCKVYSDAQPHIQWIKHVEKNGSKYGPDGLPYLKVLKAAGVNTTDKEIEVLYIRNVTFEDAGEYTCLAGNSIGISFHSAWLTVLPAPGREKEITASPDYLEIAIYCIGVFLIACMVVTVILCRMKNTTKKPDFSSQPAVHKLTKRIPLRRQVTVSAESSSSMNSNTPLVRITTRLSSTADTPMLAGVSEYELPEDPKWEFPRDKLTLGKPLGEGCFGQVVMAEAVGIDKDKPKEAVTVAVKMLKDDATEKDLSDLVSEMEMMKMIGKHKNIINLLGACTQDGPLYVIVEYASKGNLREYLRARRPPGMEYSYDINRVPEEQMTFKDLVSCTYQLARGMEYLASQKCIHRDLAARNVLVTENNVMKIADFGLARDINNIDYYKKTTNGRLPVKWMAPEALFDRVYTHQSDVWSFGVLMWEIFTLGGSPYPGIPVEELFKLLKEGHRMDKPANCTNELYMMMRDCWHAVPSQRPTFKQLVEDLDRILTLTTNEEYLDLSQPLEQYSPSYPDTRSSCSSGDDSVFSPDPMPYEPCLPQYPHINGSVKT
Test: FGFR Enzymatic Assay (FRET peptide phosphorylation), FGFR2
Type: biochemical
Conditions: pre-incubated for 5 to 10 minutes
Procedure: The inhibitor potency of the exemplified compounds was measured in an enzyme assay that measures peptide phosphorylation using FRET measurements to detect product formation. Inhibitors were serially diluted in DMSO and a volume of 0.5 μL was transferred to the wells of a 384-well plate. The enzymes were purchased from Millipore or Invitrogen. GraphPad prism3 was used to analyze the data.
Endpoint: IC50

| Smi | Endpoint | Recorded Value |
| --- | --- | --- |
| CCN1C(=O)N(c2c(F)c(OC)cc(OC)c2F)Cc2cnc(-c3ccn(C)n3)cc21 | IC50 | 10 to 30 nM |
| CCOc1cc(CN2C(=O)N(c3c(F)c(OC)cc(OC)c3F)Cc3cnc(-c4cn(C)nc4C)cc32)ccn1 | IC50 | < 10 nM |
| COc1cc(OC)c(F)c(N2Cc3cnc(-c4ccc(C5(C#N)CCC5)nc4)cc3N(c3cccnc3)C2=O)c1F | IC50 | 10 to 30 nM |
| COc1cc(OC)c(F)c(N2Cc3cnc(-c4cncc(CN5CCOCC5)c4)cc3C3(CC3)C2=O)c1F | IC50 | 30 to 200 nM |
| COc1cc(OC)c(F)c(N2Cc3cnc(-c4cc(N)cnc4C)cc3C3(CC3)C2=O)c1F | IC50 | > 200 nM |
| COc1cc(OC)c(F)c(N2Cc3cnc(-c4cc(N)ccc4C#N)cc3C3(CC3)C2=O)c1F | IC50 | > 200 nM |
| CCn1cc(CN2C(=O)N(c3c(F)c(OC)cc(OC)c3F)Cc3cnc(-c4cnn(C)c4)cc32)cn1 | IC50 | < 10 nM |

###

molecular target: FGFR2 (Homo sapiens (Human)); test: FGFR Enzymatic Assay (FRET peptide phosphorylation), FGFR2; assay type: biochemical; conditions: pre-incubated for 4 hours
pIC50: −log10 of the molar value.
Measured pIC50, listed per entry for reference.

| Compound | pIC50 |
| --- | --- |
| CCN1C(=O)N(c2c(F)c(OC)cc(OC)c2F)Cc2cnc(-c3ccc(C(=O)NCCO)nc3)cc21 | > 8.00 |
| COc1cc(OC)c(F)c(N2Cc3cnc(-c4cn(C)nc4C)cc3N(c3ccc(F)cc3)C2=O)c1F | > 8.00 |
| COc1cc(N2C(=O)N(c3c(F)c(OC)cc(OC)c3F)Cc3cnc(-c4cn(C)nc4C)cc32)ccc1C#N | 7.52 to 8.00 |
| CCCNC(=O)c1ccc(-c2cc3c(cn2)CN(c2c(F)c(OC)cc(OC)c2F)C(=O)N3CC)cn1 | > 8.00 |
| COc1cc(OC)c(F)c(N2Cc3cnc(-c4cn(C)nc4C)cc3N(c3ccc4ccncc4c3)C2=O)c1F | 7.52 to 8.00 |
| CCn1cc(CN2C(=O)N(c3c(F)c(OC)cc(OC)c3F)Cc3cnc(-c4cn(C)nc4C)cc32)cn1 | > 8.00 |
| COc1cc(OC)c(F)c(N2Cc3cnc(-c4cn(C)nc4C)cc3N(c3cn[nH]c3)C2=O)c1F | > 8.00 |
| COC(=O)Nc1ccc(N2C(=O)N(c3c(F)c(OC)cc(OC)c3F)Cc3cnc(-c4cn(C)nc4C)cc32)cc1 | > 8.00 |
| COc1cc(OC)c(F)c(N2Cc3cnc(-c4cnn(C5CCN(C(C)=O)C5)c4)cc3C3(CC3)C2=O)c1F (stereo not drawn) | > 8.00 |
| COc1cc(OC)c(F)c(N2Cc3cnc(-c4cn(C5CCN(C)C5)nc4C)cc3C3(CC3)C2=O)c1F (stereo not drawn) | > 8.00 |
| COc1cc(OC)c(F)c(N2Cc3cnc(-c4cn(C)nc4C)cc3N(Cc3cc(C(C)C)on3)C2=O)c1F | > 8.00 |
| CCn1cc(-c2cc3c(cn2)CN(c2c(F)c(OC)cc(OC)c2F)C(=O)C32CC2)c(C)n1 | > 8.00 |
| COc1cccc(N2C(=O)N(c3c(F)c(OC)cc(OC)c3F)Cc3cnc(-c4cn(C)nc4C)cc32)c1 | > 8.00 |
| COc1cc(OC)c(F)c(N2Cc3cnc(-c4nn(CC#N)cc4C#N)cc3C3(CC3)C2=O)c1F | < 6.70 |
| COc1cc(OC)c(F)c(N2Cc3cnc(-c4cn(C)nc4C)cc3N(CC3CCOCC3)C2=O)c1F | > 8.00 |
| COc1cc(OC)c(F)c(N2Cc3cnc(-c4cn(C)nc4C)cc3N(C[C@H]3CCOC3)C2=O)c1F | 7.52 to 8.00 |
| COc1cc(OC)c(F)c(N2Cc3cnc(-c4cnn(C)c4)cc3C3(CC3)C2=O)c1F | > 8.00 |
| COc1cc(OC)c(F)c(N2Cc3cnc(-c4cn(C)nc4C)cc3N(c3cncc(C)n3)C2=O)c1F | > 8.00 |
| COc1cc(OC)c(F)c(N2Cc3cnc(-c4cn(Cc5cccnc5)nc4C)cc3C3(CC3)C2=O)c1F | 6.70 to 7.52 |
| COc1cc(OC)c(F)c(N2Cc3cnc(-c4cn(C)nc4C)cc3N(C3(C#N)CC3)C2=O)c1F | > 8.00 |
| COc1cc(OC)c(F)c(N2Cc3cnc(-c4cn(C)nc4C)cc3N(Cc3cnn(C)c3C)C2=O)c1F | > 8.00 |
| COc1cc(OC)c(F)c(N2Cc3cnc(-c4cn(C)nc4C)cc3N(C(C)C)C2=O)c1F | 7.52 to 8.00 |
| COc1cc(OC)c(F)c(N2Cc3cnc(-c4cc(N)c(F)cc4C)cc3C3(CC3)C2=O)c1F | < 6.70 |
| CCN1C(=O)N(c2c(F)c(OC)cc(OC)c2F)Cc2cnc(-c3ccccc3)cc21 | 7.52 to 8.00 |
| COc1cc(OC)c(F)c(N2Cc3cnc(-c4cn(C5CCS(=O)(=O)C5)nc4C)cc3C3(CC3)C2=O)c1F (stereo not drawn) | > 8.00 |
| COc1cc(OC)c(F)c(N2Cc3cnc(-c4cnn(CC5CN(S(C)(=O)=O)C5)c4)cc3C3(CC3)C2=O)c1F | > 8.00 |
| COc1cc(OC)c(F)c(N2Cc3cnc(-c4cn(C)nc4C)cc3N(c3ccc4nc(C)oc4c3)C2=O)c1F | 6.70 to 7.52 |
| COc1cc(OC)c(F)c(N2Cc3cnc(-c4cn(C)nc4C)cc3N(c3ccnnc3)C2=O)c1F | 6.70 to 7.52 |
| COc1cc(OC)c(F)c(N2Cc3cnc(-c4cnn(C5CCN(S(C)(=O)=O)C5)c4)cc3C3(CC3)C2=O)c1F (stereo not drawn) | > 8.00 |
| COc1cc(OC)c(F)c(N2Cc3cnc(-c4cn(C)nc4C)cc3N(Cc3ccncc3)C2=O)c1F | 7.52 to 8.00 |

###

Measured IC50, listed per entry for reference.
target: UniProt:P22455; assay: FGFR Enzymatic Assay (FRET peptide phosphorylation), FGFR4; type: biochemical; conditions: pre-incubated for 4 hours
Sequence (P22455 22-802): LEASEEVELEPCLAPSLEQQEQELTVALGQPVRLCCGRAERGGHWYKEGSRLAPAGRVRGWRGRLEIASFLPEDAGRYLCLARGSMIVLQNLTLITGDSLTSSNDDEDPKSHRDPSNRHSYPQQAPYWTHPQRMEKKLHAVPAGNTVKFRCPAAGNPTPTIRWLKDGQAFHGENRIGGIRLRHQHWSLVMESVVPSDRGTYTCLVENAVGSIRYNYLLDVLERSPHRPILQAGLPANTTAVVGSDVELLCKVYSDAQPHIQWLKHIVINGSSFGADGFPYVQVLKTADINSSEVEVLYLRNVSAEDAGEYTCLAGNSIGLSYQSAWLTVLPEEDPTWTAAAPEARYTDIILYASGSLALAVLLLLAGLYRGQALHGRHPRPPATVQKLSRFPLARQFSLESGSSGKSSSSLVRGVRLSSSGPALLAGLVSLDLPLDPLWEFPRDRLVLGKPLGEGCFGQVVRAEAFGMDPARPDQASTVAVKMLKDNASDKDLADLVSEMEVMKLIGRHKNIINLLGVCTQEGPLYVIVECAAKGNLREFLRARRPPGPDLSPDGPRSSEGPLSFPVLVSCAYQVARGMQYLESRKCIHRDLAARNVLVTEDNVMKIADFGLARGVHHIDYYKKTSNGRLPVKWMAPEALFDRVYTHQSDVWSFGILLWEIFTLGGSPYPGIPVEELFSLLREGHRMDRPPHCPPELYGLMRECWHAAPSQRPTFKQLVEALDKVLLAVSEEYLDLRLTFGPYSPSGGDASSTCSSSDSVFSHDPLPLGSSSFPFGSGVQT
Endpoint: IC50

| Compound | Endpoint | Recorded Value |
| --- | --- | --- |
| COc1cc(OC)c(F)c(N2Cc3cnc(-c4cn(C)nc4C)cc3N(c3cnc(C)cn3)C2=O)c1F [Example 107] | IC50 | 0.03 to 0.2 µM |
| COc1cc(OC)c(F)c(N2Cc3cnc(-c4cn(C)nc4C)cc3N(c3ccccc3F)C2=O)c1F [Example 110] | IC50 | 0.03 to 0.2 µM |
| CCn1cc(CN2C(=O)N(c3c(F)c(OC)cc(OC)c3F)Cc3cnc(-c4cn(C)nc4C)cc32)cn1 [Example 39] | IC50 | < 0.01 µM |
| COc1cc(OC)c(F)c(N2Cc3cnc(-c4cn(C)nc4C)cc3N(C3CCN(C(C)=O)CC3)C2=O)c1F [Example 43] | IC50 | 0.03 to 0.2 µM |
| COc1cc(OC)c(F)c(N2Cc3cnc(-c4cnn(CCCN5CCOCC5)c4)cc3C3(CC3)C2=O)c1F [Example 151] | IC50 | < 0.01 µM |
| COc1cc(OC)c(F)c(N2Cc3cnc(-c4cn(C)nc4C)cc3N(c3ccc(F)c(C#N)c3)C2=O)c1F [Example 66] | IC50 | 0.03 to 0.2 µM |
| COc1cc(OC)c(F)c(N2Cc3cnc(-c4cn(C)nc4C)cc3N(Cc3csc(C)n3)C2=O)c1F [Example 95] | IC50 | 0.03 to 0.2 µM |
| COc1cc(OC)c(F)c(N2Cc3cnc(-c4cn(C)nc4C)cc3N(c3cc(F)cc(C#N)c3)C2=O)c1F [Example 78] | IC50 | 0.03 to 0.2 µM |
| COc1cc(OC)c(F)c(N2Cc3cnc(-c4cnn(CCN5CCC(OC)C5)c4)cc3C3(CC3)C2=O)c1F (stereo not drawn) [Example 161] | IC50 | 0.01 to 0.03 µM |
| COc1cc(OC)c(F)c(N2Cc3cnc(-c4cn(C5CCS(=O)(=O)C5)nc4C)cc3C3(CC3)C2=O)c1F (stereo not drawn) [Example 54] | IC50 | 0.01 to 0.03 µM |
| CCc1cnc(N2C(=O)N(c3c(F)c(OC)cc(OC)c3F)Cc3cnc(-c4cn(C)nc4C)cc32)cn1 [Example 106] | IC50 | 0.03 to 0.2 µM |
| COc1cc(OC)c(F)c(N2Cc3cnc(-c4cnn(C5CCN(C(C)=O)C5)c4)cc3C3(CC3)C2=O)c1F (stereo not drawn) [Example 150] | IC50 | < 0.01 µM |
| COc1cc(OC)c(F)c(N2Cc3cnc(-c4cn(C)nc4C)cc3N(Cc3ccc(F)c(F)c3)C2=O)c1F [Example 73] | IC50 | 0.03 to 0.2 µM |
| COc1cc(OC)c(F)c(N2Cc3cnc(-c4cnn(C5(CC#N)CN(C(C)=O)C5)c4)cc3C3(CC3)C2=O)c1F [Example 56] | IC50 | 0.03 to 0.2 µM |
| COc1cc(OC)c(F)c(N2Cc3cnc(-c4cn(C)nc4C)cc3N(c3ccc(F)c(F)c3)C2=O)c1F [Example 102] | IC50 | 0.03 to 0.2 µM |
